Just for reference, the supplement of paper PMC10567573 is where these values come from.

B1: ZC3H15 (parent)
chain: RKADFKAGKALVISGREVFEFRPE

Variants of: B1
assaySummary: protein stability index of a GFP-peptide fusion (GPS, HEK-293T) (PSI 1-6); higher = more stable;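 also: lentivirally expressed fusions sorted by FACS into six bins by GFP to DsRed ratio, PSI derived from sequencing read proportions per bin multiplied by bin number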
experimentalContext: c terminus: a fixed tail appended
quantityName: protein stability index
Give only the figure.

Entry RKADFKAGKALVISGREGFEFRPE [V18G] ; protein stability index = 3.37

What the record says about RKADFKAGKILVISGREVFEFRPE [A10I] : protein stability index is 2.09

# variant RKADFKAGKALVISGREVFEFRRE [P23R] ; its protein stability index = 2.73

protein stability index reported for this variant RKADFKAGKALVITGREVFEFRPE [S14T] : 2.98

// protein stability index value for RKADFKAGKTLVISGREVFEFRPE [A10T] : 2.88

// protein stability index lookup, variant = RKADFKAGKASVISGREVFEFRPE [L11S] , result: 3.69

Entry under test: RKADFKAGKALVISGREVFEHRPE [F21H] . Its protein stability index was 3.57

variant RKADFKAGKGLVISGREVFEFRPE [A10G] , protein stability index observed: 2.86

Entry RKADFKAGKAEVISGREVFEFRPE [L11E] , protein stability index reported as 3.78

Note to self: protein stability index recorded for RKADFKAGKALVISGRELFEFRPE [V18L] was 2.72

RKADFKAGKALVISGREVGEFRPE [F19G] has a reported protein stability index of 3.7

The variant identified as RKADFKAGAALVISGREVFEFRPE [K9A] registered its protein stability index at 3.02

For this variant ( RKADLKAGKALVISGREVFEFRPE [F5L] ), measured protein stability index is 3.93
